Below are compounds with their Ki as measured on Cannabinoid receptor 2 (Mus musculus).
Sequence (P47936 whole entry): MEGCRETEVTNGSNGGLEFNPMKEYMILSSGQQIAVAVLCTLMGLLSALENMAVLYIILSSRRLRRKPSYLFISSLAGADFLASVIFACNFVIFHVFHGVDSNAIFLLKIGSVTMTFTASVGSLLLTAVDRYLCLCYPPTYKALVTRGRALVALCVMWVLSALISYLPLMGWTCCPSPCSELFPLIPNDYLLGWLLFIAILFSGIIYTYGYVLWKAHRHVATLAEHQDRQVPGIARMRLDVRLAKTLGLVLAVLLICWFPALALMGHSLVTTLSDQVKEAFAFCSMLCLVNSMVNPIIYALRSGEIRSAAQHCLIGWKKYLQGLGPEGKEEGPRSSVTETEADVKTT
quantity: Ki (µM)

compound: CCCCC/C=C\C/C=C\C/C=C\C/C=C\CCCC(=O)Nc1ccc(O)cc1
numericValue: 13
//
compound: CCCCC/C=C\C/C=C\C/C=C\C/C=C\CCCC(=O)NCCO [ANANDAMIDE]
numericValue: 1.93
//
compound: CCCCC/C=C\C/C=C\C/C=C\C/C=C\CCCC(=O)Nc1cccc(O)c1
numericValue: 3.1
//
compound: CCCCC/C=C\C/C=C\C/C=C\C/C=C\CCCC(=S)NCCO
numericValue: 6.3
//
compound: CCCCC/C=C\C/C=C\C/C=C\C/C=C\CCCC(=O)NCc1ccc(O)cc1
numericValue: 11
//
compound: CCCCC/C=C\C/C=C\C/C=C\C/C=C\CCCC(=O)N[C@H](C)CO [METHANANDAMIDE]
numericValue: 0.815
//
compound: CCCCC/C=C\C/C=C\C/C=C\C/C=C\CCCC(=O)Nc1ccccc1O
numericValue: 2.1

Every entry's value here was drawn from ChEMBL document CHEMBL1129747.
